The following compounds were reported with IC50 values on Dihydrofolate reductase (Homo sapiens, UniProt P00374) in different studies.
Sequence (P00374 whole entry): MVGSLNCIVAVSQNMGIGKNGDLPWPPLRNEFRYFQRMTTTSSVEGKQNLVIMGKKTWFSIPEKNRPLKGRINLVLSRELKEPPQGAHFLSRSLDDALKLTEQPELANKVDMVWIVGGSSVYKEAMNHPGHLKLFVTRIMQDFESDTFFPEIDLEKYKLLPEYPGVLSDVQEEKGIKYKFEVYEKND
readout: IC50 (µM)

Consider the following illustrative entries.
# compound, system name, measurement
records = [
    ("Nc1nc(N)c2c(n1)CCC(CNc1ccc(C(=O)N[C@@H](CCC(=O)O)C(=O)O)cc1)N2C=O (some centres not stated)", "Dihydrofolate reductase (Homo sapiens, UniProt P00374)", 0.59),
    ("Nc1nc(O)c2c(n1)CCC(CCc1ccc(C(=O)N[C@@H](CCC(=O)O)C(=O)O)cc1)N2 (some centres not stated)", "Dihydrofolate reductase (Homo sapiens, UniProt P00374)", 0.059),
    ("COc1cc(Cc2cnc3nc(N)nc(N)c3c2C)cc(OC)c1", "Dihydrofolate reductase (Homo sapiens, UniProt P00374)", 0.0015),
    ("C=CCN1c2c(O)nc(N)nc2CCC1CCc1ccc(C(=O)N[C@@H](CCC(=O)O)C(=O)O)cc1 (some centres not stated)", "Dihydrofolate reductase (Homo sapiens, UniProt P00374)", 0.298),
]

1 = Nc1nc(O)c2c(n1)CCC(CCc1ccc(C(=O)N[C@@H](CCC(=O)O)C(=O)O)cc1)N2C=O (some centres not stated)
2 = Nc1nc(N)c2c(n1)CCC(CCc1ccc(C(=O)N[C@@H](CCC(=O)O)C(=O)O)cc1)N2C=O (some centres not stated)
3 = CCC(Cc1ccc(C(=O)NC(CCC(=O)O)C(=O)O)cc1)c1cnc2nc(N)nc(N)c2n1 (configuration not stated)
// sort entries: IC50, high to low Form entry: labels listed in requested order.
1, 3, 2
(1: 10.1 µM, 3: 0.07 µM, 2: 0.041 µM)

P = Nc1nc(N)c2c(n1)CCC(CCc1ccc(C(=O)N[C@@H](CCC(=O)O)C(=O)O)cc1)N2CC(Br)CBr (some centres not stated)
Q = Nc1nnc(CCC(=O)c2cccs2)s1
R = CS(=O)(=O)c1ccc2nc(N)sc2c1
S = Cc1ccc(Cl)cc1Cc1cnc2nc(N)nc(N)c2c1C
Please order the records by their reported IC50, lowest number first. Reply with the item labels sorted in the order that was asked for.
S, P, Q, R
(S: 0.0028 µM, P: 0.68 µM, Q: 300 µM, R: 1040 µM)
